# assayed.target: MATE1 (Homo sapiens, UniProt Q96FL8)
# Sequence (Q96FL8 whole entry): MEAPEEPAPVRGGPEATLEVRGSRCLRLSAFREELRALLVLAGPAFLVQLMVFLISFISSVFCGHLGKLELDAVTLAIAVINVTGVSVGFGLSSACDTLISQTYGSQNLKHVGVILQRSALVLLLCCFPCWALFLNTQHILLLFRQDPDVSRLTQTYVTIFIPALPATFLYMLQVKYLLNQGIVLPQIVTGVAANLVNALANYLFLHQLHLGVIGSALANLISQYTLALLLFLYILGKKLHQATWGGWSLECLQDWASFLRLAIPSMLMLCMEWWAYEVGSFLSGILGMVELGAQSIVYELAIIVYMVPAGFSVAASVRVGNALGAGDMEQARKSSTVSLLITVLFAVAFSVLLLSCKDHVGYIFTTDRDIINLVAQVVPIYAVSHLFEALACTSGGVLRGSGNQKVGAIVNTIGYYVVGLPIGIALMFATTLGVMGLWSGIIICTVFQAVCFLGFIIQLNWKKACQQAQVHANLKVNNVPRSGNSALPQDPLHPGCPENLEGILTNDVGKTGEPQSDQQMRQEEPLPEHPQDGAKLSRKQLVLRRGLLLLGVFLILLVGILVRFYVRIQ
# test.summary: in vitro
# assay.setup: hek293
parameter: uptake ratio at 1 min, 2.5 µM

So, C[N+](C)(C)CCO [CHOLINE] ? Its uptake ratio at 1 min, 2.5 µM was < 2

// uptake ratio at 1 min, 2.5 µM lookup, compound = CNC(=C[N+](=O)[O-])NCCSCc1ccc(CN(C)C)o1 [RANITIDINE] , result: > 2

So for CC(=O)OC(C)C[N+](C)(C)C (centres undefined) [METHACHOLINE] , the logged uptake ratio at 1 min, 2.5 µM turned out to be > 2

Sample NCCc1c[nH]cn1 [HISTAMINE] ; uptake ratio at 1 min, 2.5 µM observed: > 2

----------
# assayed.target: MATE2-K (Homo sapiens)
# Sequence (Q86VL8 whole entry): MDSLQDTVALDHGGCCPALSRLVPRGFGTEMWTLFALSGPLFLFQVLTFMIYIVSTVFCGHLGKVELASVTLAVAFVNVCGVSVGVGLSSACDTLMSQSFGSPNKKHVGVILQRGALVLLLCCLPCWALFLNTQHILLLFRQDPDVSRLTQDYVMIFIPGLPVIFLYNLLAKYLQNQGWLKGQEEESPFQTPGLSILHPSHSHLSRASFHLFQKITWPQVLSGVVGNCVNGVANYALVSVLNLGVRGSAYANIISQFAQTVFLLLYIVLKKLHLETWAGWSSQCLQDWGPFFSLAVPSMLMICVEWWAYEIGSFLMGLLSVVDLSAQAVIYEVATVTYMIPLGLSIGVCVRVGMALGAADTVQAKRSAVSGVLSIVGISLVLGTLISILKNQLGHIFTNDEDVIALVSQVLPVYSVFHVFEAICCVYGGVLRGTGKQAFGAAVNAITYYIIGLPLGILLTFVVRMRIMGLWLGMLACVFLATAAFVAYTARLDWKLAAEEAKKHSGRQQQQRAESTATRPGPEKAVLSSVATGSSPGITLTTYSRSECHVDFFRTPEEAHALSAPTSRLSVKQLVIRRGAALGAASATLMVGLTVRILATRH
# test.summary: in vitro
# assay.setup: HEK293 cells expressing MATE2-K
Quick reference for uptake ratio at 1 min, 2.5 µM among some compounds

{"compound": "CC(=O)c1cc2cccc(OCC(O)CNC(C)C)c2o1 (configuration not stated) [BEFUNOLOL]", "uptake ratio at 1 min, 2.5 µM": "< 2"}
{"compound": "C[C@@H]1Cc2c(Cl)cc(C(=O)N[C@@H](Cc3ccccc3)C(=O)O)c(O)c2C(=O)O1 [3R14S-OCHRATOXIN A]", "uptake ratio at 1 min, 2.5 µM": "< 2"}
{"compound": "CC(C)(C(=O)O)c1ccc(C(O)CCCN2CCC(C(O)(c3ccccc3)c3ccccc3)CC2)cc1 (configuration not stated) [FEXOFENADINE]", "uptake ratio at 1 min, 2.5 µM": "< 2"}
{"compound": "CNC(=C[N+](=O)[O-])NCCSCc1csc(CN(C)C)n1 [NIZATIDINE]", "uptake ratio at 1 min, 2.5 µM": "> 2"}

Entry CNCCc1ccc(O)cc1 ; uptake ratio at 1 min, 2.5 µM = < 2

uptake ratio at 1 min, 2.5 µM recorded for this compound, CNC(=O)c1cccnc1 [NICOTINYL METHYLAMIDE] , is > 2

----------
# assayed.target: MATE1 (Homo sapiens, UniProt Q96FL8)
# test.summary: in vitro
# assay.setup: HEK293 cells expressing MATE1
parameter: uptake ratio at 1 min, 2.5 µM

Previously resolved entries follow.
{"compound": "CC(C)(CO)[C@@H](O)C(=O)NCCC(=O)O", "assayed.target": "MATE1 (Homo sapiens, UniProt Q96FL8)", "parameter": "uptake ratio at 1 min, 2.5 µM", "result": "< 2"}
{"compound": "OC(CNCC(O)C1CCc2cc(F)ccc2O1)C1CCc2cc(F)ccc2O1 (configuration not stated)", "assayed.target": "MATE1 (Homo sapiens, UniProt Q96FL8)", "parameter": "uptake ratio at 1 min, 2.5 µM", "result": "< 2"}
{"compound": "CNS(=O)(=O)CCc1ccc2[nH]cc(C3CCN(C)CC3)c2c1", "assayed.target": "MATE1 (Homo sapiens, UniProt Q96FL8)", "parameter": "uptake ratio at 1 min, 2.5 µM", "result": "> 2"}
{"compound": "N=C(N)NCc1cccc(I)c1", "assayed.target": "MATE1 (Homo sapiens, UniProt Q96FL8)", "parameter": "uptake ratio at 1 min, 2.5 µM", "result": "> 2"}
{"compound": "NCCCCCN", "assayed.target": "MATE1 (Homo sapiens, UniProt Q96FL8)", "parameter": "uptake ratio at 1 min, 2.5 µM", "result": "< 2"}
{"compound": "NCC(O)c1ccc(O)cc1 (configuration not stated)", "assayed.target": "MATE1 (Homo sapiens, UniProt Q96FL8)", "parameter": "uptake ratio at 1 min, 2.5 µM", "result": "> 2"}

Turning now to a further compound:
Bench note, MATE1 (Homo sapiens, UniProt Q96FL8): CC(C)(C)NCC(O)c1ccc(O)c(O)c1 (configuration not stated) , uptake ratio at 1 min, 2.5 µM reads > 2

----------
# assayed.target: MATE2-K (Homo sapiens)
# Sequence (Q86VL8 whole entry): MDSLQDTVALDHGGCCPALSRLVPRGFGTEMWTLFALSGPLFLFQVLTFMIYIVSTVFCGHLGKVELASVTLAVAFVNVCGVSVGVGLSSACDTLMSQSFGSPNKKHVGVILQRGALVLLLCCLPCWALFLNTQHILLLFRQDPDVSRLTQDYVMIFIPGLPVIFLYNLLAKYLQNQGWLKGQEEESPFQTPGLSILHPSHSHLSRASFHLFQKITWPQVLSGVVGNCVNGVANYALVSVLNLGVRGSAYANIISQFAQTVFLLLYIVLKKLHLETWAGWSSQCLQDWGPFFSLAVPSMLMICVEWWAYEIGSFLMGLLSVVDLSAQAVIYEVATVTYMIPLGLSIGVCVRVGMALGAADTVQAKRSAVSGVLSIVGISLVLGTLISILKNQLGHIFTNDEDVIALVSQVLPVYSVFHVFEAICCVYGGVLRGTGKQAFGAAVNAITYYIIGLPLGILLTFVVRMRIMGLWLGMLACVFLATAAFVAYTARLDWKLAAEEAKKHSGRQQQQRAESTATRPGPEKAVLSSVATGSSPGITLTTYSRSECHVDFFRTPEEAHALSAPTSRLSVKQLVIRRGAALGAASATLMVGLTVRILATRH
# test.summary: in vitro
# assay.setup: HEK293 cells expressing MATE2-K
The following compounds are listed with their measured uptake ratio at 1 min, 2.5 µM values.

Some solved entries appear below for comparison.
{"compound": "CCC(Cc1ccc2c(c1)OCO2)NC (stereo unspecified)", "result": "< 2"}
{"compound": "CCN(CC)CCNC(=O)c1ccc(NS(C)(=O)=O)cc1 [SEMATILIDE]", "result": "> 2"}
{"compound": "CCC1(c2ccccc2)C(=O)NC(=O)NC1=O", "result": "< 2"}
{"compound": "CC(C)[N+](C)(CCOC(=O)C1c2ccccc2Oc2ccccc21)C(C)C", "result": "> 2"}

Here is another compound to look at.
Form: compound = CN(CC(=O)O)C(=N)N ; uptake ratio at 1 min, 2.5 µM = < 2

----------
# assayed.target: Multidrug and toxin extrusion protein 1 (Homo sapiens, UniProt Q96FL8)
# test.summary: Substrate activity at MATE1 (unknown origin) expressed in HEK293 cells assessed as intrinsic clearance by measuring ratio of Vmax (maximum transport velocity) over Km measured per mg of protein by HPLC-MS/MS analysis
# Assay type: cell-based
CL values by entry
Numeric only. Scale: µL/min

{"compound": "CNC[C@H](O)c1cccc(O)c1 [PHENYLEPHRINE]", "unit.name": "µL/min", "number": 24.5}

Next up:
Input CN[C@@H]1CCc2[nH]c3ccc(C(N)=O)cc3c2C1 [FROVATRIPTAN] . Output CL: 64.9
